Target: CYP1A2 (Homo sapiens, UniProt P05177)
Construct: pooled mixed-gender human liver microsomes; from tissue; host or cells: pooled mixed-gender human liver microsomes
Sequence (P05177 1-516): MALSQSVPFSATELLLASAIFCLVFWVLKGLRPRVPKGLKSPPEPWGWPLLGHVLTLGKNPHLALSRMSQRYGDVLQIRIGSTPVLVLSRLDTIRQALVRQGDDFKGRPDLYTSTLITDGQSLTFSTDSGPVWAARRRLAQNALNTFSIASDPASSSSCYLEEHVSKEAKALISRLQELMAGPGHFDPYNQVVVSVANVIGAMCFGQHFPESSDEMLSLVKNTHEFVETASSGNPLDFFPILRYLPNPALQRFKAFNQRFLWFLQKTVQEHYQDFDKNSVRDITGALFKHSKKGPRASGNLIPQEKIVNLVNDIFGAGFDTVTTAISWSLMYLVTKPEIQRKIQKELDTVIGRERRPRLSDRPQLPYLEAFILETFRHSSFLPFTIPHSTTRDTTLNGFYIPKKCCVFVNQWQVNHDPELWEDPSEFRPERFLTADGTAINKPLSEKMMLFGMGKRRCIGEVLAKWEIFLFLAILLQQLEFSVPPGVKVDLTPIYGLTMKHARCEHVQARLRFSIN
Test: CYP1A2 inhibition in pooled human liver microsomes
Type: in vitro ADME
Settings: read-out: Time-dependent inhibition IC50; Phenacetin O-dealkylation; 30-min preincubation
PROPERTY LABEL: IC50

# SMILES STRUCTURE, VAL
measured = [
    ("CN1CCC(COc2cnc(-c3cccc(Cn4nc(-c5cccc(C#N)c5)ccc4=O)c3)nc2)CC1", "> 49.5 µM"),
]

Every entry's value here was drawn from paper PMC10447267.
